Assay: Toxicity liver stage against HepG2, at 10uM
Assay type: cell-based
Set-up: test concentration 10 uM, cell line HepG2-A16-CD81EGFP
Settings: human, HepG2-A16-CD81EGFP cells; read-out: INHIBITION
VALUE TYPE: cytotoxicity at 10 µM (%)
# number only, unit % dropped from output

Prompt: Param item = Cc1ccc2[nH]c(=O)c(CN(C)Cc3cc(C4CC4)[nH]n3)cc2c1 ; retrieve measured cytotoxicity at 10 µM.
Response: -3.07

Prompt: And O=C1CCCN1CCCC(=O)N1CCCCC1c1ccc(F)cc1 (centres undefined) ?
Response: -43.2

Prompt: Entry O=C1CSC(C(F)(F)F)c2c(O)nn(C3CCCCC3)c2N1 (centres undefined) please
Response: -45.7

Prompt: Note, next up: OC(CN1CCN(Cc2cc(F)ccc2F)CC1)C1CC1 (centres undefined)
Response: 0.353
